From: patent US20110230403A1

- TARGET_ENTITY: human sodium glucose cotransporter 2 (Homo sapiens, UniProt P31639)
- Construct: expressed in transfected cells; host or cells: CHO-K1 (ATCC CCL-61) or HEK293 (ATCC CRL-1573), stably transfected with pZeoSV expression vector
- Sequence (P31639 1-672): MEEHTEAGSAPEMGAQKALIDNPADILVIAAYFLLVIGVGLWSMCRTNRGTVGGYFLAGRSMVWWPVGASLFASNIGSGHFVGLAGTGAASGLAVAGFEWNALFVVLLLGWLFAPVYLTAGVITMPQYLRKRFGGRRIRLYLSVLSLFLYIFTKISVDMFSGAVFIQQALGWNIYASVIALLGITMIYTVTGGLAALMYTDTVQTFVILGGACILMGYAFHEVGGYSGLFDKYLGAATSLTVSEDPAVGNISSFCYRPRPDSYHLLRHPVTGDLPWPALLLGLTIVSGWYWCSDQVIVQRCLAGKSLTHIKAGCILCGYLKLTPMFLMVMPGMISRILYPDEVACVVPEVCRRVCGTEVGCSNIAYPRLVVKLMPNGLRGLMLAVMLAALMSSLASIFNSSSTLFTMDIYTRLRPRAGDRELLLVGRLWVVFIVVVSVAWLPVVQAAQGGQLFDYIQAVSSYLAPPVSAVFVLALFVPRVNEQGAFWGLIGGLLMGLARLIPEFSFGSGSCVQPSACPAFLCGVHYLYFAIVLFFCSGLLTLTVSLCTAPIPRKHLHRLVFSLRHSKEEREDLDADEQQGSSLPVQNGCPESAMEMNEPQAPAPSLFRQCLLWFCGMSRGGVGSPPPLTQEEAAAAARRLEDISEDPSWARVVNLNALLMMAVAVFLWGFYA
- PROCEDURE_DETAILS: SGLT-2 assay: 14C-AMG uptake in CHO-hSGLT2 or HEK293-hSGLT2 cells
- Assay type: cell-based
- SETTINGS: n = 1-4, hSGLT2-transfected cells, read-out: SGLT2 IC50 nM (n = 1-4)
ASSAY_ENDPOINT: log10 IC50 (log10 of the value in nM)

CCOc1ccc(Cc2cc([C@@H]3O[C@H](CSc4cccc(NC(=O)OC)c4)[C@@H](O)[C@H](O)[C@H]3O)ccc2Cl)cc1 [Example 69]: 1.45
CCOc1ccc(Cc2cc([C@@H]3O[C@H](CSc4cc(C(N)=O)ccc4F)[C@@H](O)[C@H](O)[C@H]3O)ccc2Cl)cc1 [Example 26]: 1.08
CCOc1ccc(Cc2cc([C@@H]3O[C@H](CSc4nnnn4C)[C@@H](O)[C@H](O)[C@H]3O)ccc2Cl)cc1 [Example 10]: 1.30
CCOc1ccc(Cc2cc([C@@H]3O[C@H](CSc4ccccc4C(N)=O)[C@@H](O)[C@H](O)[C@H]3O)ccc2Cl)cc1 [Example 24]: 1.76
CCOc1ccc(Cc2cc([C@@H]3O[C@H](COc4cccc(C(=O)N5CCC5)c4)[C@@H](O)[C@H](O)[C@H]3O)ccc2Cl)cc1 [Example 85]: 0.95
CCOc1ccc(Cc2cc([C@@H]3O[C@H](CSc4cc(C(=O)NC)ccc4F)[C@@H](O)[C@H](O)[C@H]3O)ccc2Cl)cc1 [Example 27]: 0.78
CCOc1ccc(Cc2cc([C@@H]3O[C@H](COc4cccc(C(=O)N5CCCC5)c4)[C@@H](O)[C@H](O)[C@H]3O)ccc2Cl)cc1 [Example 84]: 1.04
CCOc1ccc(Cc2cc([C@@H]3O[C@H](CSc4cccc(C(=O)NC)c4)[C@@H](O)[C@H](O)[C@H]3O)ccc2Cl)cc1 [Example 40]: 1.11
CCOc1ccc(Cc2cc([C@@H]3O[C@H](CSc4cc(C(=O)N5CCC5)ccc4F)[C@@H](O)[C@H](O)[C@H]3O)ccc2Cl)cc1 [Example 37]: 0.48
CCOc1ccc(Cc2cc([C@@H]3O[C@H](CSc4cccc(CO)c4)[C@@H](O)[C@H](O)[C@H]3O)ccc2Cl)cc1 [Example 77]: 1.79
CCOc1ccc(Cc2cc([C@@H]3O[C@H](CSc4cccc(C(=O)N(C)C)c4)[C@@H](O)[C@H](O)[C@H]3O)ccc2Cl)cc1 [Example 50]: 0.90
CCOc1ccc(Cc2cc([C@@H]3O[C@H](CSc4cccc(C(=O)N5CCCC5)c4)[C@@H](O)[C@H](O)[C@H]3O)ccc2Cl)cc1 [Example 47]: 1.15
CCOc1ccc(Cc2cc([C@@H]3O[C@H](CSc4cccc(NC(=O)CC)c4)[C@@H](O)[C@H](O)[C@H]3O)ccc2Cl)cc1 [Example 67]: 0.95
